# Target entity: Grb2 SH2 (UniProt P62993)
# Sequence (P62993 whole entry, looked up, the tested form may be a part): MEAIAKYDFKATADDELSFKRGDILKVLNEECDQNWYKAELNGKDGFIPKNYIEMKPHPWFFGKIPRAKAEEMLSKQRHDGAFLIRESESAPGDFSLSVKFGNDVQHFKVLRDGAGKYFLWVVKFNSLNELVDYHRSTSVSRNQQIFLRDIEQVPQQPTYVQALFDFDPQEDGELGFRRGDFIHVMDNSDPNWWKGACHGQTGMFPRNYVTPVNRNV
# Experiment notes: SH2 binding enrichment of the phosphorylated peptide, bacterial display (enrichment ratio); higher = better substrate or ligand; peptides without Tyr show the background;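 further: peptide library displayed on the E. coli surface as eCPX fusions, selected cells deep-sequenced, score is each peptide's frequency after selection divided by its frequency in the input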
Outcome measure: SH2 binding enrichment
Numbers only.

Below: 10 sequences and their reported SH2 binding enrichment.
{"Polymer sequence": "YGEYRYRSVIK [CFTR_Y517_D513G]", "SH2 binding enrichment": 0.769}
{"Polymer sequence": "PMFTKYGNGLL [RPGRIP1L_Y196_S199G]", "SH2 binding enrichment": 0.724}
{"Polymer sequence": "NKPTVCGVSPN [ABL1_Y226_Y226C]", "SH2 binding enrichment": 0.952}
{"Polymer sequence": "VLTPKYRGGGG [HBA1_Y141_S139P]", "SH2 binding enrichment": 1.03}
{"Polymer sequence": "NVDGKYSYLKV [GRM3_Y478_G475D]", "SH2 binding enrichment": 0.752}
{"Polymer sequence": "AKFPFYEKNKK [FOXL2_Y91]", "SH2 binding enrichment": 1.31}
{"Polymer sequence": "KHTLSFVDVGT [SDHA_Y629_Y629F]", "SH2 binding enrichment": 0.862}
{"Polymer sequence": "TAALWYIFSHT [ENG_Y612_YF]", "SH2 binding enrichment": 1.02}
{"Polymer sequence": "VEFAKYGSLQG [RET_Y809_R813Q_YF]", "SH2 binding enrichment": 0.745}
{"Polymer sequence": "DMQTLYVNTAA [SMCHD1_Y403]", "SH2 binding enrichment": 4.57}

Please look at the items below and tell me SH2 binding enrichment for each one, in order.
1. LIGRRCDDPEV [HSPA9_Y128_Y128C]
2. RMQLPYDSTWE [PDGFRB_Y589_P584R]
3. CFSSEYHFVGG [CTSC_Y345_Y340C_YF]
4. ELRGTYTSLQQ [KIF3C_Y574]
5. LQTFRYHGHSM [PDHA1_Y289_YF]
6. QKKPCYEIRWK [PDGFRB_Y562_R561C]
7. GNLLIYTEFGN [HGD_Y166_K171N]
8. NTPNAYLRVNV [ADD2_Y440_T439A]

## Result
0.997
0.445
0.944
0.775
0.901
1.55
0.736
0.856

Please look at the items below and tell me SH2 binding enrichment for each one, in order.
1. LNCAGYCDALE [MTUS1_Y151]
2. ESMLRYDVYGG [STOX1_Y607_E608D]
3. SIKDKHVTALY [KCNH2_Y611_Y611H]
4. SVTCTYSPALI [TP53_Y126_N131I]
5. PLDGEYFTLRI [TP53_Y327_Q331R]
6. AFLLLYFNDTH [BMP15_Y235]

## Result
1: 0.754; 2: 0.996; 3: 0.899; 4: 0.659; 5: 0.767; 6: 1.01

Please look at the items below and tell me SH2 binding enrichment for each one, in order.
1. THLAPYSDELR [APOA1_Y190]
2. FRRITYHNWRH [PDE6B_Y556_YF]
3. RDLEQYVNNVN [PCDH19_Y1097]
4. DCAAIYGNEPD [AKR1A1_Y50_E55D]
5. SDVLSYGVTMW [ZAP70_Y525_W523L]

## Result
0.723
0.475
1.8
1.11
0.837

Please look at the items below and tell me SH2 binding enrichment for each one, in order.
1. ATGGFYSFGGG [KRT24_Y120_YF]
2. GGRIDYIAGLD [APRT_Y60]
3. SWSTSYSGFRC [NKAPL_Y91_Y96C_YF]
4. DRLANYLEKVR [KRT40_Y103_S102N]
5. CTTIHYIFMCN [TP53_Y234_N235I_YF]
6. PGNIVYSSLCG [BCOR_Y90]
7. SHISGYAALRR [RAPH1_Y1226_T1228A]

## Result
1: 0.749; 2: 0.789; 3: 0.87; 4: 0.764; 5: 1.19; 6: 0.875; 7: 0.56
